Data provenance: patent US7981883B2

Quick list: VR1 (rat) (% stimulation compared to 10 μM CP) per entry.
# SYSTEM_TESTED: VR1 (rat) (Rattus norvegicus)
# Construct: from tissue; host or cells: primary cells dissociated from rat dorsal root ganglia
# Sequence (O35433 whole entry): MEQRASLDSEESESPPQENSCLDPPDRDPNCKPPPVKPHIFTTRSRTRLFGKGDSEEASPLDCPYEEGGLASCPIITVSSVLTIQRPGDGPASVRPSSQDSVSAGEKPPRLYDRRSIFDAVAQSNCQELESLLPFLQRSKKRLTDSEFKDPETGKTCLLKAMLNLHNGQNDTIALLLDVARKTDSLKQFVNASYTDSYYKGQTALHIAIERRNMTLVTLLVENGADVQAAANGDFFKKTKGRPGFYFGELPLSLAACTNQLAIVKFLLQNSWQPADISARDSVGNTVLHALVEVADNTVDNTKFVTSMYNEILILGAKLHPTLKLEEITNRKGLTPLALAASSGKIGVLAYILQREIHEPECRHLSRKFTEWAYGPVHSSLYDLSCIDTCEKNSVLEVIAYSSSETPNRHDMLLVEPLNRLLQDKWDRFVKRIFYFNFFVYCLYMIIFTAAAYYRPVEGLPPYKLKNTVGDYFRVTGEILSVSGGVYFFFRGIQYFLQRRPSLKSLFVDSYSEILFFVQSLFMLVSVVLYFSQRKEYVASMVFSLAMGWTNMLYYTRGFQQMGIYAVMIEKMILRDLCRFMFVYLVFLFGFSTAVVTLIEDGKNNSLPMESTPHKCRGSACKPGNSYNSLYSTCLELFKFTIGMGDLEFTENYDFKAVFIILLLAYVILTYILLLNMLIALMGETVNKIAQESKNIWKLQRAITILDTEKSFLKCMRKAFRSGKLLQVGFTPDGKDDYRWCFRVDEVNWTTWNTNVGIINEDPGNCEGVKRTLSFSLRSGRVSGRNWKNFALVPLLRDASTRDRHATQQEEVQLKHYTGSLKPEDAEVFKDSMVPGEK
# ASSAY_PROTOCOL: Functional FLIPR Ca2+ inflow assay on rat-species vanilloid receptor 1 in rat dorsal root ganglia cells
# Type: cell-based
# CONDITION_LABEL: test compound 10 μM; Ca2+ signal relative to 10 μM capsaicin (CP)
# Text: I. Functional Testing Carried Out on the Vanilloid Receptor 1 (VR1/TRPV1 Receptor) The agonistic or antagonistic effect of the substances to be tested can be determined on the rat-species vanilloid receptor 1 (VR1/TRPV1) using the following assay. […]
Expressed in %, but write only the number.

Which VR1 (rat) (% stimulation compared to 10 μM CP) value is on record for CC(C)(C)C1CCC2(CC1)CC(C(=O)N1CCCN(c3ncccc3Cl)CC1)=NO2 (stereo not shown) ?
0.37

Input CC(C)(C)c1ccc(NC(=O)[C@H]2CC[C@@]3(CC2)CC(c2ccccc2)=NO3)cc1
73

And what about the compound CC(C)(C)[C@H]1CC[C@]2(CC1)CC(C(=O)N1CCN(c3ncccc3C(F)(F)F)CC1)=NO2 ?
0.57

Try the compound CC(C)(C)C1CCC2(CC1)CC(C(=O)NCc1ccc(NS(C)(=O)=O)cc1)=NO2 (stereo not shown) [Example 3]
0.10

* * *

# SYSTEM_TESTED: VR1 (human) (Homo sapiens)
# Sequence (Q8NER1 whole entry): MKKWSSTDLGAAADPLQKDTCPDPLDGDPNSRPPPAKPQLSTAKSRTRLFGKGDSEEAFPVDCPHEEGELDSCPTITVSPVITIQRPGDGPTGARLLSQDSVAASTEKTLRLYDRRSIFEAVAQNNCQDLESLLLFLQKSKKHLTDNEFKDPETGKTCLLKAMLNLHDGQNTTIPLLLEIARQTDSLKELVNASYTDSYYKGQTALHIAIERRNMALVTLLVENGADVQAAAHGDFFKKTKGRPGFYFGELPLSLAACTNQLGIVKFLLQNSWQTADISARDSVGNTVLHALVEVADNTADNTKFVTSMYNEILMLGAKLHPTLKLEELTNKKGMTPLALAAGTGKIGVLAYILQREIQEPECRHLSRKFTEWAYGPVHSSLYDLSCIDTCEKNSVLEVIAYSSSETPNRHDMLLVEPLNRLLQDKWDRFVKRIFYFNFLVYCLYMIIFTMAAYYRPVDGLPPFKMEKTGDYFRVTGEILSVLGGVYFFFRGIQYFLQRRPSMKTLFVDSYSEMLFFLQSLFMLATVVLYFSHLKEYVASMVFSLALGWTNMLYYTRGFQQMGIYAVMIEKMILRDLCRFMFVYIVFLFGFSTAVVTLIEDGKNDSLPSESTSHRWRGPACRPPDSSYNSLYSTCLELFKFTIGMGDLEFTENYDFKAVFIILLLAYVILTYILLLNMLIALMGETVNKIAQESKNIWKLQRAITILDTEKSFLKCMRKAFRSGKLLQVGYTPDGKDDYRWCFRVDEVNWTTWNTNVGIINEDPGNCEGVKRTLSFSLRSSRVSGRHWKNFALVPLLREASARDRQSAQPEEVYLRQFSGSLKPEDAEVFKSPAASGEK
# ASSAY_PROTOCOL: Functional FLIPR Ca2+ inflow assay on VR1 (human), CHO K1 cells stably transfected with the VR1 gene
# CONDITION_LABEL: against capsaicin (CAP)
QUANTITY_KIND: Ki (nM)
Quick reminder: number only, in nM, skip the unit.

For orientation, consider the following solved cases.
| COMPOUND | SYSTEM_TESTED | MEASURED_NUMBER |
| --- | --- | --- |
| CC(C)(C)[C@H]1CC[C@@]2(CC1)CC(C(=O)N1CCN(c3ncccc3C(F)(F)F)CC1)=NO2 | VR1 (human) (Homo sapiens) | 4860 |
| CCC(C)(C)C1CCC2(CC1)CC(C(=O)NCc1ccc(NS(C)(=O)=O)c(F)c1)=NO2 (stereo not drawn) | VR1 (human) (Homo sapiens) | 2050 |

Which Ki is reported for this compound? CC(C)(C)[C@H]1CC[C@@]2(CC1)CC(C(=O)NCc1ccc(NS(C)(=O)=O)c(F)c1)=NO2
1990

* * *

# SYSTEM_TESTED: VR1 (human) (Homo sapiens)
# Construct: expressed in transfected cells; host or cells: CHO K1 cells (ECACC)
# ASSAY_PROTOCOL: Functional FLIPR Ca2+ inflow assay on VR1 (human), CHO K1 cells stably transfected with the VR1 gene
# Format: cell-based
# CONDITION_LABEL: CHO-K1; test compound 10 μM, then 100 nM capsaicin after 5 min; relative to maximum inhibition with 10 μM capsaicin; read-out: VR1 (human) (% inhibition compared to 10 μM CP)
QUANTITY_KIND: inhibition at 10 µM (%)
Output spec: scalar in %, unitless text.

Form: Entry = CC(C)(C)c1ccc(NC(=O)C2CCC3(CC2)CC(c2ccccc2)=NO3)cc1 (stereo not shown) | System = VR1 (human) (Homo sapiens) | inhibition at 10 µM = ____
64

Now the compound CCC(C)(C)C1CCC2(CC1)CC(C(=O)NCc1ccc(NS(C)(=O)=O)c(F)c1)=NO2 (stereo not shown)
42

Entry to check: COc1cccc(C2=NOC3(CCC(C(=O)Nc4ccc(C(C)(C)C)cc4)CC3)C2)c1 (stereo not shown)
54

# repeat for CC(C)(C)C1CCC2(CC1)CC(C(=O)Nc1ccc(NS(C)(=O)=O)c(F)c1)=NO2 (stereo not shown)
34

How about CC(C)(C)[C@H]1CC[C@]2(CC1)CC(C(=O)NCc1ccc(NS(C)(=O)=O)c(F)c1)=NO2 ?
56.5

Ok, now CC(C)(C)c1ccc(NC(=O)C2CCC3(CC2)CC(C(=O)N2CCN(c4ncccc4Cl)CC2)=NO3)cc1 (stereo not shown)
31

Then this compound: CC(C)(C)[C@H]1CC[C@@]2(CC1)CC(C(=O)NCc1ccc(NS(C)(=O)=O)c(F)c1)=NO2
92.8

Next entry: CC(C)(C)C1CCC2(CC1)CC(C(=O)NCc1ccc(N)cc1)=NO2 (stereo not shown)
23.6

Next compound: CC(C)(C)C1CCC2(CC1)CC(C(=O)N1CCc3cc(O)c(O)cc3C1)=NO2 (stereo not shown)
79.9

Another compound: CC(C)(C)C1CCC2(CC1)CC(C(=O)Nc1cccc3cnccc13)=NO2 (stereo not shown)
76.3
